- Test system: 786-0 renal
- run.description: NCI tumour cell line growth inhibition, 48 h; in the data active = GI50 below about 0.43 µM; inactive = the rest
// allowed return values: true = active, false = inactive

Solved entries:
• CC1CCCC(C#N)(NOC2=NCCN2)C1 (stereo unspecified) = false
• Cc1ccc(S(=O)(=O)n2cc([C@@]3(O)C[C@H](CSC#N)OC3=O)c3ccccc32)cc1 = false
• O=C1CS/C(=N/S(=O)(=O)c2ccc(N3N=C4c5ccccc5CC4C3c3cccs3)cc2)N1C(=O)c1ccccc1 (stereo unspecified) = false
• Nc1nc(Cl)nc2c1ncn2C1OC(CO)C(O)C1F (stereo unspecified) = true
• Cc1cc(=O)[nH]c(N/N=C/c2ccccc2O)n1 = false

Read the next record carefully.
Look up the recorded call for CC(C)=Cc1cc(C)c2ccc(C)c3c2c1C(C)=C(O)C3=O in this test.
false

---

- Test system: NCI-H23 lung
- run.description: NCI tumour cell line growth inhibition, 48 h
Some compounds, each annotated with its measured TGI.
Lab book: enter the figure in µM, no units written.

Entry Nc1nc(Cl)nc2c1ncn2C1OC(CO)C(O)C1F (stereo unspecified) : TGI on NCI-H23 lung = 0.626

Entry O=C1CS/C(=N/S(=O)(=O)c2ccc(N3N=C4c5ccccc5CC4C3c3cccs3)cc2)N1C(=O)c1ccccc1 (stereo unspecified) : TGI on NCI-H23 lung = 61.1

Entry O=C1NC(=O)C(=Cc2cn(Cc3ccccc3)c3ccccc23)C(=O)N1 : TGI on NCI-H23 lung = 34.2

---

- System: HL-60(TB) leukemia
- run.description: NCI tumour cell line growth inhibition, 48 h; in the data active = GI50 below about 0.43 µM; inactive = the rest
// allowed return values: active, inactive

Solved entries:
• CC1CCCC(C#N)(NOC2=NCCN2)C1 (stereo not given) = inactive
• O=C(O)COc1ccc(OCC(=O)O)cc1 = active

Look up the recorded call for COc1cc(OC)c2c(=O)cc(-c3ccccc3OCc3ccccc3)oc2c1OC in this test.
inactive

Look up the recorded call for OCCCCC#Cc1ccccc1C#Cc1cccnc1 in this test.
inactive

Look up the recorded call for COc1cc(S(=O)(=O)Nc2nc(-c3ccc(N4C(=O)C(C)SC4c4ccccc4O)cc3)cs2)ccc1Cl (stereo not given) in this test.
inactive

Look up the recorded call for CC12CCC(=O)C(O1)C1C(=O)c3ccc4c(ccc5ccccc54)c3C(=O)C12 (stereo not given) in this test.
inactive

Look up the recorded call for CCCCC#Cc1c(I)n(C2OC(CO[Si](C)(C)C(C)(C)C)C3OC(C)(C)OC32)c(=O)n(C(=O)c2ccccc2)c1=O (stereo not given) in this test.
inactive

Look up the recorded call for CC(=O)c1c[nH]c2ccc(-c3ccnc(Nc4ccc(NC(=O)C5CCCC5)c(CN5CCOCC5)c4)n3)cc12 in this test.
active

Look up the recorded call for COc1cc(Cc2c(C)cc(OC)c3[nH]c4ccccc4c23)cc2c1[nH]c1ccccc12 in this test.
inactive

Look up the recorded call for Cc1cc(=O)[nH]c(N/N=C/c2ccccc2O)n1 in this test.
inactive

---

- System: OVCAR-8 ovarian
- run.description: NCI tumour cell line growth inhibition, 48 h
readout.name: GI50

- COC1=C(OC)C(=O)C(C/C=C(\C)CC/C=C(\C)CC/C=C(\C)CC/C=C(\C)CC/C=C(\C)CC/C=C(\C)CC/C=C(\C)CC/C=C(\C)CC/C=C(\C)CCC=C(C)C)=C(C)C1=O: > 100000 nM
- COc1cc2nc(N3CCC[C@H](NC4=CC(=O)c5ccccc5C4=O)C3)nc(N)c2cc1OC: 2060 nM
- CN1CCN(CCCOc2ccc3nc(Nc4ccc(F)c(F)c4)ccc3c2)CC1: 3600 nM

From here, focus on the item given below.
Note to self: GI50 recorded for O=C1OCC2=C1C(c1cccc(C(F)(F)F)c1)c1cc3c(cc1N2CCO)OCCO3 (centres undefined) was 1290 nM

---

Some compounds, each annotated with its measured GI50.
- Test system: NCI-H460 lung
- run.description: NCI tumour cell line growth inhibition, 48 h

* O=C1CS/C(=N/S(=O)(=O)c2ccc(N3N=C4c5ccccc5CC4C3c3cccs3)cc2)N1C(=O)c1ccccc1 (stereo not given) | > 100 µM
* C=CC1C(CC2OC(CO)C(O)C(O)C2O)OC=C2C(=O)OCCC21O (stereo not given) | 28.4 µM
* N#CC1=C(N)NC(N2CCOCC2)=NC12Nc1ccccc1O2 (stereo not given) | 46.1 µM
* CC(C)(C)c1ccc(C2CC(=O)C3=C(C2)Nc2ccccc2N(C(=O)c2ccccc2Cl)C3c2ccc(F)cc2)cc1 (stereo not given) | > 100 µM

From here, focus on the item given below.
Note to self: GI50 recorded for CC12CCC(=O)C(O1)C1C(=O)c3ccc4c(ccc5ccccc54)c3C(=O)C12 (stereo not given) was 4.84 µM

---

Some molecules, each annotated with its measured TGI.
- System: SW-620 colon
- run.description: NCI tumour cell line growth inhibition, 48 h

Worked set:
- Cc1ccc(-n2nncc2[Si](C)(C)C)s1: > 100 µM
- c1ccc2c[n+](CCCC[n+]3ccc4ccccc4c3)ccc2c1: > 100 µM
- Cc1ccc(N2C(=O)/C(=C/c3ccc(N(CCC#N)CCC#N)cc3)N=C2COc2ccc(Cl)cc2Cl)cc1: > 100 µM
- Cc1cc(=O)[nH]c(NNC(C#N)c2ccccc2O)n1 (configuration not stated): > 100 µM
- Cc1nc(NS(=O)(=O)c2ccc(NCN3C(=O)c4ccccc4C3=O)cc2)oc1C: > 100 µM

Entry [N-]=[N+]=Nc1nc2ccccc2c(N=[N+]=[N-])c1Cl : TGI on SW-620 colon = > 100 µM

---

Some molecules, each annotated with its measured TGI.
- Tested on: NCI-H226 lung
- run.description: NCI tumour cell line growth inhibition, 48 h

Worked set:
- O=C(O)CSC1=NNC2(C(=O)N1)c1ccccc1-c1ccccc12: > 10 µM
- Cc1nc(C)c(N2CCN(CN)CC2)c(=O)[nH]1: > 100 µM
- O=C1C=CC(=O)c2c1ccc1c3ccccc3n(Cc3ccccc3)c21: 24.7 µM

Note to self: TGI recorded for FC(F)c1ncc(-c2ccc(C(F)(F)F)cc2)c(NC2CCCCCC2)n1 was > 10 µM

Note to self: TGI recorded for COc1ccc(NC(=O)CC(=O)N/N=C(\C)c2cc3ccccc3oc2=O)cc1 was > 100 µM

Note to self: TGI recorded for Cc1ccc2oc(=O)c3c(O)c4cccc(OC5OC(C)C6O[C@@H](c7ccccc7)OC6C5OC5OC(C)C(O)C(O)C5O)c4c4oc(=O)c1c2c34 (stereo partly specified) was 0.211 µM

Note to self: TGI recorded for CC(OP(=O)(O)O)C(N)C(=O)O (stereo unspecified) was > 100 µM

Note to self: TGI recorded for Cc1cc(Cl)cc2c1NC(=O)C2(O)CC(=O)c1ccc(Br)cc1 (stereo unspecified) was > 100 µM

---

- System: HCT-15 colon
- run.description: NCI tumour cell line growth inhibition, 48 h; in the data active = GI50 below about 0.43 µM; inactive = the rest
// allowed return values: yes (active), no (inactive)

Look up the recorded call for CN1CCC(c2c(O)cc(O)c3c(=O)cc(-c4ccccc4Cl)oc23)C(O)C1 (configuration not stated) in this test.
yes

Look up the recorded call for CC(=O)c1c[nH]c2ccc(-c3ccnc(Nc4ccc(NC(=O)C5CCCC5)c(CN5CCOCC5)c4)n3)cc12 in this test.
yes

Look up the recorded call for Cc1ccc2oc(=O)c3c(O)c4cccc(OC5OC(C)C6O[C@@H](c7ccccc7)OC6C5OC5OC(C)C(O)C(O)C5O)c4c4oc(=O)c1c2c34 (some centres not stated) in this test.
yes

Look up the recorded call for CCCCCCCC(=O)[O-].CCCCCCCC(=O)[O-].N.N.N.N.[Co+3].[O-][Cl+3]([O-])([O-])[O-] in this test.
no

---

- Test system: T-47D breast
- run.description: NCI tumour cell line growth inhibition, 48 h
Some molecules, each annotated with its measured GI50.

Note to self: GI50 recorded for OCCCCC#Cc1ccccc1C#Cc1cccnc1 was 34.7 µM

Note to self: GI50 recorded for CC1=C(CO)C(=O)O[C@@H]([C@@H](C)[C@H]2CC[C@H]3[C@@H]4C[C@H]5O[C@]56[C@@H](O)C=CC(=O)[C@]6(C)[C@H]4CC[C@]23C)C1 was 0.5 µM

Note to self: GI50 recorded for O=C(O)Cn1c2c(c3c1-c1ccccc1C3=O)C(=O)CCC2 was > 100 µM

---

- System: HL-60(TB) leukemia
- run.description: NCI tumour cell line growth inhibition, 48 h
readout.name: log10 TGI (log10 of the value in µM)
Log scale reminder: TGI in µM, then log10 taken.

Worked set:
• CCCCCCCCCCCNC=O = 1.60
• Cc1ccc(N=C/C=C(\Nc2ccc(C)cc2)c2ccc3ccccc3c2)cc1 = 0.31
• C/C(=N\Nc1nc2ccccc2[nH]1)c1ncccn1 = -1.46
• COc1cccc(NC(=O)CC(=O)n2nc(-c3ccccc3)c(N=Nc3ccc(Cl)cc3)c2-c2ccccc2)c1 = 1.75

Entry Oc1cccc2c(Br)ccnc12 : log10 TGI on HL-60(TB) leukemia = -0.01
